target: histamine-stimulated adenylate cyclase (Cavia porcellus); construct: by the method developed by Kanof and Greengard; experiment: in vitro inhibition of histamine-stimulated adenylate cyclase (ad. cyc H); details: smaller numbers indicate greater potency, read-out: ad cyc H rating (molar concentration required to inhibit by 50% the stimulation of adenylate cyclase observed after treatment with histamine)
Sequence (P47747 whole entry): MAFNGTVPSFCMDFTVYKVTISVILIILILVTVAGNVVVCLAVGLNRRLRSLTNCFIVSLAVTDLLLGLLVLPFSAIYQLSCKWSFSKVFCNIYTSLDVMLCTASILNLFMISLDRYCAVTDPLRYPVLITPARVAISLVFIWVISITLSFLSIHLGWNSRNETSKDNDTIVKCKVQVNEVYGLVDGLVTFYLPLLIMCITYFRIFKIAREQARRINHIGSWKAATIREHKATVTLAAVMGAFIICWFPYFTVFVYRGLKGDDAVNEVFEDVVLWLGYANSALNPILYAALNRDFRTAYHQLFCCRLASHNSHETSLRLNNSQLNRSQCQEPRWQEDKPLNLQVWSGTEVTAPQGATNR
pIC50: −log10 of the molar value. Counter-ions that a name gives are not always drawn.
value_kind: pIC50

- molecule: "CN1CCN2C[C@@H](c3ccccc3)c3ccccc3[C@@H]2C1 (relative stereo) [Example 1, dihydrochloride]"
  pIC50: 5.17
- molecule: "c1ccc([C@@H]2CN3CCNC[C@H]3c3ccccc32)cc1 (relative stereo) [Example 4, dihydrochloride]"
  pIC50: "< 5.00"
- molecule: "CN1CCN2C[C@@H](c3ccccc3)c3ccccc3[C@H]2C1 (relative stereo) [Example 2, dihydrochloride]"
  pIC50: "< 5.00"

# ---- query molecule ----
Asked: # input molecule: CCN1CCN2C[C@@H](c3ccccc3)c3ccccc3[C@@H]2C1 (relative stereo) [Example 3, dihydrochloride] ; wanted: its pIC50
Given back: < 5.00

====

biological target: specific binding of tritiated mepyramine ([^3 H]-mepyramine) in brain (Rattus norvegicus, UniProt P31390)
Sequence (P31390 whole entry): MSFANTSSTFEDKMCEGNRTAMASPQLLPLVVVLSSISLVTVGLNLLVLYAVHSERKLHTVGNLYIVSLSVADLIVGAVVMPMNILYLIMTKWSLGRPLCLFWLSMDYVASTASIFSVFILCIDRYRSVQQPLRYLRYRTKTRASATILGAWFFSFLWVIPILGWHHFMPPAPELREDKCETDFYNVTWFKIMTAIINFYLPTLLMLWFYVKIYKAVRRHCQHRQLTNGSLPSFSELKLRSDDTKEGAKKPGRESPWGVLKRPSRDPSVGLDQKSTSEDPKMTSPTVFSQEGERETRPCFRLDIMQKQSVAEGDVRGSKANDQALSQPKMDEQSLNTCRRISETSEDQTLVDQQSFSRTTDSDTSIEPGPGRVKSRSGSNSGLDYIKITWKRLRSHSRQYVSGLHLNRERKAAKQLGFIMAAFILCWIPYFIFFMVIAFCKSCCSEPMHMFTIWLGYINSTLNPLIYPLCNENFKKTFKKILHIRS
Structures can show the parent of a compound that is named as a salt.
value_kind: IC50 (nM)
Express your answer in nM, writing the number without its unit.

- molecule: "CN1CCN2C[C@@H](c3ccccc3)c3ccccc3[C@@H]2C1 (relative stereo) [Example 1, dihydrochloride]"
  u: "nM"
  endpoint_value: 20

Please find the next molecule below.
Asked: What IC50 value was documented for this molecule, CCN1CCN2C[C@@H](c3ccccc3)c3ccccc3[C@@H]2C1 (relative stereo) [Example 3, dihydrochloride] ?
Given back: 340

====

target: binding of tritiated quinuclidinyl benzylate ([^3 H]-QNB) in brain; conditions: in vitro; brain homogenates; read-out: (^3 H)QNB rating (molar concentration required to inhibit by 50% the binding of [^3 H]QNB)
Where a name gives a salt, the structure may show the parent alone.
value_kind: pIC50
Notebook: values listed as pIC50 are -log10 of the concentration (mol/L).

- molecule: "CN1CCN2C[C@@H](c3ccccc3)c3ccccc3[C@H]2C1 (relative stereo) [Example 2, dihydrochloride]"
  pIC50: 5.48

Asked: Param item = CN1CCN2C[C@@H](c3ccccc3)c3ccccc3[C@@H]2C1 (relative stereo) [Example 1, dihydrochloride] ; retrieve measured pIC50.
Given back: 6.60

Asked: Consider the molecule c1ccc([C@@H]2CN3CCNC[C@H]3c3ccccc32)cc1 (relative stereo) [Example 4, dihydrochloride] and give its measured pIC50.
Given back: 6.04

Asked: pIC50 lookup needed for CCN1CCN2C[C@@H](c3ccccc3)c3ccccc3[C@@H]2C1 (relative stereo) [Example 3, dihydrochloride] , thanks.
Given back: 5.96
